- EXPERIMENTAL PROTOCOL: SK-BR-3 cell growth inhibitors, pilot screen, 24 h, human (AID 572);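 also: compound exposure lasted between 18 and 24 h rather than exactly 24 h; 100% = carrier-treated control wells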
- CONDITION CONTEXT: SK-BR-3 viability, CellTiter-Glo luminescence, at 10 µM, stronger effect = lower value
MEASURED ATTRIBUTE: viability (%)
Hi! Could you send only the number? It should be in %, unit omitted.

In: What value of measured viability is listed for CC1(C)CC(=O)C2=C(C1)NC(=O)CC2C(=O)NCc1ccc(F)cc1 (stereo not given) ?
Out: 106

In: What value of measured viability is listed for COc1ccc(OC)c(S(=O)(=O)Nc2ccccc2SC)c1 ?
Out: 72

In: What value of measured viability is listed for CCOC(=O)c1[nH]c(C)c(C(=O)Nc2ccccc2C)c1C ?
Out: 79.5

In: What value of measured viability is listed for CCn1cc(C2Nc3ccccc3C(=O)N2O)c(C)n1 (stereo not given) ?
Out: 93

In: What value of measured viability is listed for CC1(C)C2CCC1(C)C(OC(=O)CSc1nc(N)cc(=O)[nH]1)C2 (stereo not given) ?
Out: 104

In: What value of measured viability is listed for Cc1occc1-c1nnc(SCC(=O)N2CCOCC2)n1Cc1ccco1 ?
Out: 106

In: What value of measured viability is listed for Cc1ccc(OCC(O)Cn2c(NCCc3ccccc3)nc3c2c(=O)[nH]c(=O)n3C)cc1 (stereo not given) ?
Out: 60

In: What value of measured viability is listed for CC(=O)OCC(=O)[C@@]1(O)CC[C@H]2[C@@H]3CCC4=CC(=O)C=C[C@]4(C)[C@H]3[C@@H](O)C[C@@]21C ?
Out: 82

In: What value of measured viability is listed for Cn1c(=O)c2c(nc(SCC(=O)N3CCCc4ccccc43)n2C)n(C)c1=O ?
Out: 94

In: What value of measured viability is listed for CCOC(=O)c1sc(NC(=O)COC(=O)Cn2cnc3ccccc32)c(C(=O)OCC)c1C ?
Out: 96
